Target: Serine/threonine-protein kinase PLK3 (Homo sapiens, UniProt Q9H4B4)
Sequence (Q9H4B4 whole entry): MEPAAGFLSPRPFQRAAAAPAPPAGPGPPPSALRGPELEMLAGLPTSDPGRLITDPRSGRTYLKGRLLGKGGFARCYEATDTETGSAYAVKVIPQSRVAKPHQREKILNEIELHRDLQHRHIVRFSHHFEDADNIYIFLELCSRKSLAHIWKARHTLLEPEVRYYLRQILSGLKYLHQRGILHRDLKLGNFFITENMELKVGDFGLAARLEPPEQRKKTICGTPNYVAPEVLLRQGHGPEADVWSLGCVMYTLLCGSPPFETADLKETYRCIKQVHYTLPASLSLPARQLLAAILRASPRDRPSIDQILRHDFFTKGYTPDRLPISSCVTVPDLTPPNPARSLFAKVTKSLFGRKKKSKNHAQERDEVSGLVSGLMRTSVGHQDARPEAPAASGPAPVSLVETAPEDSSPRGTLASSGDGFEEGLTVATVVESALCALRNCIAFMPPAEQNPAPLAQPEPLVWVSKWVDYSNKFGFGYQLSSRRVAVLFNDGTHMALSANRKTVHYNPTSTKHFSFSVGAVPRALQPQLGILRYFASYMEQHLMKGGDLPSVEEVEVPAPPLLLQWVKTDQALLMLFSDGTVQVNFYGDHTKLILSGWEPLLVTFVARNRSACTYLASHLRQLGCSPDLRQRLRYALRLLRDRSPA
Experiment: Inhibition of FITC-GPLATSpTPKNG-OH binding to Plk3 PBD (unknown origin) after 30 mins by fluorescence polarization assay
Square brackets hold non-standard residues; d marks the D form. Peptide text beside a SMILES is read from it. pT = C[C@@H](OP(=O)(O)O)[C@H](N)C(=O)O
Measure name: IC50

INSERT INTO measurements (compound, recorded_measurement) VALUES
  ('CC[C@H](C)[C@H](NC(=O)[C@H](C)NC(=O)[C@@H](NC(=O)[C@H](CO)NC(=O)[C@H](Cc1cnc[nH]1)NC(=O)[C@H](CC(C)C)NC(=O)[C@@H]1CCCN1C(=O)[C@@H]1CCCN1C(=O)[C@H](CC(=O)O)NC(=O)[C@H](Cc1ccc(OC)cc1)NC(=O)[C@@H](NC(=O)[C@H](CCC(N)=O)NC(C)=O)[C@@H](C)O)[C@@H](C)OP(=O)(O)O)C(=O)N[C@@H](Cc1ccc(O)cc1)C(=O)N[C@@H](C)C(=O)N[C@@H](CC(N)=O)C(N)=O (Ac-QTY(Me)DPPLHS[pT]AIYAN-NH2)', 'Not Active'),
  ('CC[C@H](C)[C@H](NC(=O)[C@H](C)NC(=O)[C@@H](NC(=O)[C@H](CO)NC(=O)[C@H](Cc1cnc[nH]1)NC(=O)[C@H](CC(C)C)NC(=O)[C@@H]1CCCN1C(=O)[C@@H]1CCCN1C(=O)[C@H](CC(=O)O)NC(=O)[C@H](Cc1ccccc1)NC(C)=O)[C@@H](C)OP(=O)(O)O)C(=O)N[C@@H](Cc1ccc(O)cc1)C(=O)N[C@@H](C)C(=O)N[C@@H](CC(N)=O)C(N)=O (Ac-FDPPLHS[pT]AIYAN-NH2)', 'Not Active');

* * *

Target: Serine/threonine-protein kinase PLK3 (Homo sapiens, UniProt Q9H4B4)
Test: Inhibition of FITC-GPLATSpTPKNG-OH binding to Plk3 PBD (unknown origin) after 30 mins by fluorescence polarization assay
Square brackets hold non-standard residues; d marks the D form. Peptide text beside a SMILES is read from it. Phe(4-NO2) = N[C@@H](Cc1ccc([N+](=O)[O-])cc1)C(=O)O; Phe(3,4-Cl2) = N[C@@H](Cc1ccc(Cl)c(Cl)c1)C(=O)O; pT = C[C@@H](OP(=O)(O)O)[C@H](N)C(=O)O
Measure name: IC50

INSERT INTO results (compound, recorded_measurement) VALUES
  ('CC[C@H](C)[C@H](NC(=O)[C@H](C)NC(=O)[C@@H](NC(=O)[C@H](CO)NC(=O)[C@H](Cc1cnc[nH]1)NC(=O)[C@H](CC(C)C)NC(=O)[C@@H]1CCCN1C(=O)[C@@H]1CCCN1C(=O)[C@H](CC(=O)O)NC(=O)[C@H](Cc1ccc([N+](=O)[O-])cc1)NC(=O)[C@@H](NC(=O)[C@H](CCC(N)=O)NC(C)=O)[C@@H](C)O)[C@@H](C)OP(=O)(O)O)C(=O)N[C@@H](Cc1ccc(O)cc1)C(=O)N[C@@H](C)C(=O)N[C@@H](CC(N)=O)C(N)=O (Ac-QT[Phe(4-NO2)]DPPLHS[pT]AIYAN-NH2)', 'Not Active'),
  ('CC[C@H](C)[C@H](NC(=O)[C@H](C)NC(=O)[C@@H](NC(=O)[C@H](CO)NC(=O)[C@H](Cc1cnc[nH]1)NC(=O)[C@H](CC(C)C)NC(=O)[C@@H]1CCCN1C(=O)[C@@H]1CCCN1C(=O)[C@H](CC(=O)O)NC(=O)[C@H](Cc1ccc(Cl)c(Cl)c1)NC(=O)[C@@H](NC(C)=O)[C@@H](C)O)[C@@H](C)OP(=O)(O)O)C(=O)N[C@@H](Cc1ccc(O)cc1)C(=O)N[C@@H](C)C(=O)N[C@@H](CC(N)=O)C(N)=O (Ac-T[Phe(3,4-Cl2)]DPPLHS[pT]AIYAN-NH2)', 'Not Active');

* * *

Target: Serine/threonine-protein kinase PLK2 (Homo sapiens, UniProt Q9NYY3)
Sequence (Q9NYY3 whole entry): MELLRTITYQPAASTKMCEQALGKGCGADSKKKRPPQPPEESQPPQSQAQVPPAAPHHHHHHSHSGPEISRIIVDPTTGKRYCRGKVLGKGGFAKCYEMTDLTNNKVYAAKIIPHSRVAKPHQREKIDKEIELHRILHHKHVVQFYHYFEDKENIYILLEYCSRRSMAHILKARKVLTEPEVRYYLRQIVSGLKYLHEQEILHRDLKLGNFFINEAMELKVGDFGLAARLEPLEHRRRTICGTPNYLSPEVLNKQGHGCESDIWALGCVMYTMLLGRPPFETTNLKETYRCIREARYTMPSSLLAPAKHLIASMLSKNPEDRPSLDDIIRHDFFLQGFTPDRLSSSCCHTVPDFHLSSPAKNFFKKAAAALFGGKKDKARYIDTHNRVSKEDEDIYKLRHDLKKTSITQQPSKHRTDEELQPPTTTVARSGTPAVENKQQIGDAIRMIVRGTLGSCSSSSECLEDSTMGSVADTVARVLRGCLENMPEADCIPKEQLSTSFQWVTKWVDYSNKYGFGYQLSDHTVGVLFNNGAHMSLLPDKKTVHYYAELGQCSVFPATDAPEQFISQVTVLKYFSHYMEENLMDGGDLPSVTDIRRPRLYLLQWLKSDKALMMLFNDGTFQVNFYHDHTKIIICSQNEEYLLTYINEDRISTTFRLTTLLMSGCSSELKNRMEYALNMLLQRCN
Assay: Inhibition of FITC-GPMQTSpTPKNG-OH binding to Plk2 PBD (unknown origin) after 30 mins by fluorescence polarization assay
Square brackets hold non-standard residues; d marks the D form. Peptide text beside a SMILES is read from it. Phe(4-NO2) = N[C@@H](Cc1ccc([N+](=O)[O-])cc1)C(=O)O; Phe(3,4-Cl2) = N[C@@H](Cc1ccc(Cl)c(Cl)c1)C(=O)O; Phe(4-Cl) = N[C@@H](Cc1ccc(Cl)cc1)C(=O)O; Phe(4-F) = N[C@@H](Cc1ccc(F)cc1)C(=O)O; pT = C[C@@H](OP(=O)(O)O)[C@H](N)C(=O)O
Measure name: IC50

Consider the following illustrative entries.
INSERT INTO assay_data (compound, recorded_measurement) VALUES
  ('CC[C@H](C)[C@H](NC(=O)[C@H](C)NC(=O)[C@@H](NC(=O)[C@H](CO)NC(=O)[C@H](Cc1cnc[nH]1)NC(=O)[C@H](CC(C)C)NC(=O)[C@@H]1CCCN1C(=O)[C@@H]1CCCN1C(=O)[C@H](CC(=O)O)NC(=O)[C@H](Cc1ccc(OC)cc1)NC(=O)[C@@H](NC(=O)[C@H](CCC(N)=O)NC(C)=O)[C@@H](C)O)[C@@H](C)OP(=O)(O)O)C(=O)N[C@@H](Cc1ccc(O)cc1)C(=O)N[C@@H](C)C(=O)N[C@@H](CC(N)=O)C(N)=O (Ac-QTY(Me)DPPLHS[pT]AIYAN-NH2)', 'Not Active'),
  ('CC[C@H](C)[C@H](NC(=O)[C@H](C)NC(=O)[C@@H](NC(=O)[C@H](CO)NC(=O)[C@H](Cc1cnc[nH]1)NC(=O)[C@H](CC(C)C)NC(=O)[C@@H]1CCCN1C(=O)[C@@H]1CCCN1C(=O)[C@H](CC(=O)O)NC(=O)[C@H](Cc1ccc(Cl)cc1)NC(=O)[C@@H](NC(=O)[C@H](CCC(N)=O)NC(C)=O)[C@@H](C)O)[C@@H](C)OP(=O)(O)O)C(=O)N[C@@H](Cc1ccc(O)cc1)C(=O)N[C@@H](C)C(=O)N[C@@H](CC(N)=O)C(N)=O (Ac-QT[Phe(4-Cl)]DPPLHS[pT]AIYAN-NH2)', 'Not Active'),
  ('CC[C@H](C)[C@H](NC(=O)[C@H](C)NC(=O)[C@@H](NC(=O)[C@H](CO)NC(=O)[C@H](Cc1cnc[nH]1)NC(=O)[C@H](CC(C)C)NC(=O)[C@@H]1CCCN1C(=O)[C@@H]1CCCN1C(=O)[C@H](CC(=O)O)NC(=O)[C@H](Cc1ccc([N+](=O)[O-])cc1)NC(=O)[C@@H](NC(=O)[C@H](CCC(N)=O)NC(C)=O)[C@@H](C)O)[C@@H](C)OP(=O)(O)O)C(=O)N[C@@H](Cc1ccc(O)cc1)C(=O)N[C@@H](C)C(=O)N[C@@H](CC(N)=O)C(N)=O (Ac-QT[Phe(4-NO2)]DPPLHS[pT]AIYAN-NH2)', 'Not Active'),
  ('CC[C@H](C)[C@H](NC(=O)[C@H](C)NC(=O)[C@@H](NC(=O)[C@H](CO)NC(=O)[C@H](Cc1cnc[nH]1)NC(=O)[C@H](CC(C)C)NC(=O)[C@@H]1CCCN1C(=O)[C@@H]1CCCN1C(=O)[C@H](CC(=O)O)NC(=O)[C@H](Cc1ccc(F)cc1)NC(=O)[C@@H](NC(=O)[C@H](CCC(N)=O)NC(C)=O)[C@@H](C)O)[C@@H](C)OP(=O)(O)O)C(=O)N[C@@H](Cc1ccc(O)cc1)C(=O)N[C@@H](C)C(=O)N[C@@H](CC(N)=O)C(N)=O (Ac-QT[Phe(4-F)]DPPLHS[pT]AIYAN-NH2)', 'Not Active'),
  ('CC[C@H](C)[C@H](NC(=O)[C@H](C)NC(=O)[C@@H](NC(=O)[C@H](CO)NC(=O)[C@H](Cc1cnc[nH]1)NC(=O)[C@H](CC(C)C)NC(=O)[C@@H]1CCCN1C(=O)[C@@H]1CCCN1C(=O)[C@H](CC(=O)O)NC(=O)[C@H](Cc1ccc(Cl)c(Cl)c1)NC(=O)[C@@H](NC(=O)[C@H](CCC(N)=O)NC(C)=O)[C@@H](C)O)[C@@H](C)OP(=O)(O)O)C(=O)N[C@@H](Cc1ccc(O)cc1)C(=O)N[C@@H](C)C(=O)N[C@@H](CC(N)=O)C(N)=O (Ac-QT[Phe(3,4-Cl2)]DPPLHS[pT]AIYAN-NH2)', 'Not Active');

Provide one value: measured IC50 of CC[C@H](C)[C@H](NC(=O)[C@H](C)NC(=O)[C@@H](NC(=O)[C@H](CO)NC(=O)[C@H](Cc1cnc[nH]1)NC(=O)[C@H](CC(C)C)NC(=O)[C@@H]1CCCN1C(=O)[C@@H]1CCCN1C(=O)[C@H](CC(=O)O)NC(=O)[C@H](Cc1ccc(Cl)c(Cl)c1)NC(=O)[C@H](CCC(N)=O)NC(C)=O)[C@@H](C)O)C(=O)N[C@@H](Cc1ccc(O)cc1)C(=O)N[C@@H](C)C(=O)N[C@@H](CC(N)=O)C(N)=O (Ac-Q[Phe(3,4-Cl2)]DPPLHSTAIYAN-NH2)
Not Active

Provide one value: measured IC50 of CC[C@H](C)[C@H](NC(=O)[C@H](C)NC(=O)[C@@H](NC(=O)[C@H](CO)NC(=O)[C@H](Cc1cnc[nH]1)NC(=O)[C@H](CC(C)C)NC(=O)[C@@H]1CCCN1C(=O)[C@@H]1CCCN1C(=O)[C@H](CC(=O)O)NC(=O)[C@H](Cc1ccc(Cl)c(Cl)c1)NC(=O)[C@@H](NC(C)=O)[C@@H](C)O)[C@@H](C)OP(=O)(O)O)C(=O)N[C@@H](Cc1ccc(O)cc1)C(=O)N[C@@H](C)C(=O)N[C@@H](CC(N)=O)C(N)=O (Ac-T[Phe(3,4-Cl2)]DPPLHS[pT]AIYAN-NH2)
Not Active
